- target or test system: von Willebrand factor (VWF), purified plasma-derived, multimeric, native
- assay explanation: SPR (BIAcore), VWF injected under flow over immobilised T5-8CUB, equilibrium fit
readout name: pKd
Interpret pKd as the negative base-10 log of the concentration measured in mol/L.

The value of pKd measured for the substance ADAMTS13 TSP1 5-8 repeats plus CUB domains, N-terminal linker and Flag, C-terminal V5-His (from UniProt Q76LX8 884-1191; Q76LX8 1192-1427) turned out to be 6.67
